- measuredOn: T1, recombinant SUFU (UniProt Q9UMX1 1-484)
- T1 sequence (looked up): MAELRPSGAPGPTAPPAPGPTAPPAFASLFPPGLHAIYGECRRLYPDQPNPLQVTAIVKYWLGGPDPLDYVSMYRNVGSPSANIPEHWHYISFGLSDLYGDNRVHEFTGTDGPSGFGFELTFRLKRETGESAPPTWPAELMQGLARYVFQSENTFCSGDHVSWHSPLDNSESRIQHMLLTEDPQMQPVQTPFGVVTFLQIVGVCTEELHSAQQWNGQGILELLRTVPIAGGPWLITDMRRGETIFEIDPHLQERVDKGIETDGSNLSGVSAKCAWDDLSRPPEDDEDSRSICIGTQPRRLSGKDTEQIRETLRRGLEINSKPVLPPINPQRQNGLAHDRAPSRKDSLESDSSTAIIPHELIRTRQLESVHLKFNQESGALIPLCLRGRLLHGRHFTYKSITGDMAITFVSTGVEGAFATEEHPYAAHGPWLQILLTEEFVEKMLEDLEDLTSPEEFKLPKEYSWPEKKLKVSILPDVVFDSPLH
- protocol: SPR
pKd: −log10 of the molar value. Where no end group is shown, it is not given here. [ ]: non-standard residue; d: D form. pS = N[C@@H](COP(=O)(O)O)C(=O)O

binder	pKd
MIRT[pS]PNSLVTILNNSRSSSSASGSYGHLSASAISPA (peptide, UniProt P10071 309-345, looked up) [phosphorylated GLI3 peptide (phospho-GLI3^S313_(309–345))]	5.29
